Molecular target: EP4 (Homo sapiens (Human))
Sequence (P35408 whole entry): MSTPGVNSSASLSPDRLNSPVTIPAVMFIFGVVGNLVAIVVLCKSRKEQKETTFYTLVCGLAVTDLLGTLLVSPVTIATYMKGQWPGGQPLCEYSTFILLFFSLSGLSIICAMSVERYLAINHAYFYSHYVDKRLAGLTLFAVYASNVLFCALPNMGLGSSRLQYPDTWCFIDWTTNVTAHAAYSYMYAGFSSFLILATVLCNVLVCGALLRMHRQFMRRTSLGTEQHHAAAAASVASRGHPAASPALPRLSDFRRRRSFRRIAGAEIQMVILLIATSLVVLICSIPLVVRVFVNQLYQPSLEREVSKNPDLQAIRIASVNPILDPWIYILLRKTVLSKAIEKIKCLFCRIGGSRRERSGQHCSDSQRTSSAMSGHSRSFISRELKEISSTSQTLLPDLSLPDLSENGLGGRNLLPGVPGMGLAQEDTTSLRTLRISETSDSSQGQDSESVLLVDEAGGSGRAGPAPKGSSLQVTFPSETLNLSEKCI
Assay: hEP4 cAMP assay (BT549 breast cancer cells, HTRF cAMP)
Format: cell-based
Conditions: antagonistic activity; mean values where measured multiple times
Protocol: Plate is pre-incubated 45 minutes at room temperature. Subsequently, 2.5 microliters of PGE2 (final conc. 6 nM) are transferred into the assay plate. Plate is incubated 30 minutes at room temperature.
IC50 under 300 nM gets met, anything at or over 300 nM gets not met.

[[record]]
substance_smiles = "COc1cc(F)c(F)c2c1cc(C)n2CCNc1cc(-c2cc(Cl)c(C(=O)O)c(OCC(F)(F)F)c2)ncn1"
class_assignment = "met"

[[record]]
substance_smiles = "Cc1ccc(F)c2c1cc(C)n2CCNc1cc(-c2ccc(-c3csc(CC(N)=O)n3)cc2)ncn1"
class_assignment = "not met"

[[record]]
substance_smiles = "COc1ccc(F)c2c1cc(C)n2CCNc1cc(-c2ccc(-c3csc(CC(N)=O)n3)cc2)ncn1"
class_assignment = "not met"

[[record]]
substance_smiles = "COc1ccc(F)c2c1cc(C)n2CCNc1cc(-c2ccc(-c3csc(C(=O)O)n3)cc2)ncn1"
class_assignment = "met"

[[record]]
substance_smiles = "COc1cc(F)c(F)c2c1cc(C)n2CCNc1cc(-c2ccc3c(ccn3C)c2)ncn1"
class_assignment = "met"

[[record]]
substance_smiles = "Cc1nnc(-c2ccc(-c3cc(NCCn4c(C)cc5c(C)ccc(F)c54)ncn3)cc2)o1"
class_assignment = "met"

[[record]]
substance_smiles = "Cc1cc(F)cc2c1cc(C)n2CCNc1cc(-c2ccc3ncccc3c2)ncn1"
class_assignment = "not met"

